Cited source for all entries: patent US10421765B2

tested on: ATR-driven phosphorylation of Chk1 kinase at Serine 345 in HT-29 colorectal adenocarcinoma cells; assay: pCHK1 cellular assay (CHK1 p-Ser345 AlphaScreen SureFire); type: cell-based; conditions: Homo sapiens, HT-29, HT-29 cells, 4-nitroquinoline N-oxide 12 uM; read-out: Cell IC50 (pCHK1 IC50 values)
Kindly supply the reported log10 of IC50 values for the records listed here.
Values reflect log10 of reported IC50 (nM).

Prompt line: Give log10 of IC50 for C[C@@H]1Cc2ncnc(C3CCN(S(C)(=O)=O)CC3)c2CN1c1cc(C2CC2)nc2[nH]ccc12
Response line: 1.73

Prompt line: Give log10 of IC50 for C[C@@H]1Cc2ncnc(C3CCN(S(C)(=O)=O)CC3)c2CN1c1ccnc2[nH]ccc12 [Example 6, bis(trifluoroacetate)]
Response line: 1.72

Prompt line: Give log10 of IC50 for C[C@@H]1Cc2ncnc(N3CCC4(CC3)NC(=O)NC4=O)c2CN1c1cc(Cl)nc2[nH]ccc12
Response line: 2.76

Prompt line: Give log10 of IC50 for C[C@@H]1Cc2ncnc(N3CC(C(C)(C)O)C3)c2CN1c1cc(Cl)nc2[nH]ccc12
Response line: 1.18

Prompt line: Give log10 of IC50 for COC(=O)N1CCC(c2ncnc3c2CN(c2cc(Cl)nc4[nH]ccc24)[C@H](C)C3)CC1
Response line: 1.45

Prompt line: Give log10 of IC50 for C[C@@H]1Cc2ncnc(C3CCN(S(C)(=O)=O)CC3)c2CN1c1cnc2cn[nH]c2c1
Response line: 3.87

Prompt line: Give log10 of IC50 for C[C@@H]1Cc2ncnc(N3CC4CCC(C3)C4NS(C)(=O)=O)c2CN1c1ccnc2[nH]ccc12 (some centres unmarked)
Response line: 1.68

Prompt line: Give log10 of IC50 for CNC(=O)C1CN(c2ncnc3c2CN(c2cc(Cl)nc4[nH]ccc24)[C@H](C)C3)C1
Response line: 1.94

Prompt line: Give log10 of IC50 for CC1Cc2ncnc(-c3ccc(S(C)(=O)=O)cc3)c2CN1c1ccnc2[nH]ccc12 (centres unmarked) [Example 3, bis(trifluoroacetate)]
Response line: 2.26

Prompt line: Give log10 of IC50 for Cc1cc2c(N3Cc4c(ncnc4C4CCN(S(C)(=O)=O)CC4)C[C@H]3C)ccnc2[nH]1
Response line: 1.99

Prompt line: Give log10 of IC50 for C[C@@H]1Cc2ncnc(N3CCCC(S(C)(=O)=O)C3)c2CN1c1ccnc2[nH]ccc12 (some centres unmarked)
Response line: 2.12

Prompt line: Give log10 of IC50 for C[C@@H]1Cc2ncnc(N3CCC34CN(S(C)(=O)=O)C4)c2CN1c1cc(Cl)nc2[nH]ccc12
Response line: 1.75

Prompt line: Give log10 of IC50 for C[C@@H]1Cc2ncnc(C3CCN(C(=O)C(C)(C)O)CC3)c2CN1c1ccnc2[nH]ccc12
Response line: 2.82

Prompt line: Give log10 of IC50 for C[C@@H]1Cc2ncnc(N3CCC[C@H](NS(C)(=O)=O)C3)c2CN1c1cc(Cl)nc2[nH]ccc12
Response line: 0.85
